system: B16; experiment: Antimelanogenic activity at alpha-MSH-stimulated mouse melanoma B16 cells after 3 days by spectrophotometry; format: functional, cell-based; details: B16, 72 h
endpoint: pIC50
Remember the convention: pIC50 equals -log10 of concentration in molar.

Use the examples below as a reference point.
S=C(N/N=C/c1cccc2ccccc12)NC1CCCCC1; 6.54
COc1ccccc1NC(=S)N/N=C/c1cccc2ccccc12; 6.04
CN(C)C(=S)N/N=C/c1cccc2ccccc12; 6.55

For record `CCNC(=S)N/N=C/c1cccc2ccccc12` the listed pIC50 is 5.96

For record `Cc1ccc(NC(=S)N/N=C/c2cccc3ccccc23)cc1` the listed pIC50 is 6.24

For record `S=C(N/N=C/c1cccc2ccccc12)Nc1ccc(Cl)cc1` the listed pIC50 is 5.72

###

system: B16; test: Antimelanogenic activity at alpha-MSH-stimulated mouse melanoma B16 cells after 3 days by spectrophotometry; assay type: functional, cell-based; conditions: B16, 72 h
Hi! Just check whether IC50 is below 0.5 µM. Below gives condition met, equal or above gives condition not met.

Some solved cases for reference:
NC(=O)N/N=C/c1cccc2ccccc12; condition not met
CN(C)C(=S)N(C)/N=C/c1cccc2ccccc12; condition not met
COc1ccc(NC(=S)N/N=C/c2cccc3ccccc23)cc1; condition not met

For this molecule, is IC50 lower than 0.5 µM? `S=C(NCc1ccccc1)N/N=C/c1cccc2ccccc12`
condition met

For this molecule, is IC50 lower than 0.5 µM? `Cc1cccc(NC(=S)N/N=C/c2cccc3ccccc23)c1`
condition met

###

system: B16; experiment: Antimelanogenic activity at alpha-MSH-stimulated mouse melanoma B16 cells after 3 days by spectrophotometry; type: functional, cell-based; details: B16, 72 h
Reported pIC50 values for the following compounds.
Remember the convention: pIC50 equals -log10 of concentration in molar.

Use the examples below as a reference point.
S=C(N/N=C/c1cccc2ccccc12)Nc1ccccc1; 6.30
Cc1ccccc1NC(=S)N/N=C/c1cccc2ccccc12; 6.31
CNC(=S)N/N=C/c1cccc2ccccc12; 5.70
CN(/N=C/c1cccc2ccccc12)C(N)=S; 5.80

Hey, B16 data for `COc1cccc(NC(=S)N/N=C/c2cccc3ccccc23)c1` : pIC50 came out at 6.08
